# System: M. tuberculosis H37Rv GyrA A90V
# Assay type: cell-based
Give measured MIC M. tuberculosis H37Rv GyrA A90V for each item. Keep answers brief.
Numeric answer only, unit µM assumed.

Asked: Could you share which MIC M. tuberculosis H37Rv GyrA A90V value was measured for CCCCCCCCN1CCN(c2c(F)cc3c(=O)c(C(=O)O)cn(C4CC4)c3c2OC)CC1 [Quin 18] ?
Given back: 2

Asked: Next molecule: CCCCCCCN1CCN(c2c(F)cc3c(=O)c(C(=O)O)cn(C4CC4)c3c2OC)CC1 [Compound 15]
Given back: 2.2

Asked: Repeat for the following molecule: CCCCCCCCCN1CCN(c2c(F)cc3c(=O)c(C(=O)O)cn(C4CC4)c3c2OC)CC1 [Compound 17]
Given back: 2

Asked: And for CCCCCCCCCCN1CCN(c2c(F)cc3c(=O)c(C(=O)O)cn(C4CC4)c3c2OC)CC1 [Quin 19] ?
Given back: 1

Asked: Do the same for CCCCCCCCCCCN1CCN(c2c(F)cc3c(=O)c(C(=O)O)cn(C4CC4)c3c2OC)CC1 [Compound 19] please
Given back: 10

Asked: Same again, this time with CCCCCCCCCCCCN1CCN(c2c(F)cc3c(=O)c(C(=O)O)cn(C4CC4)c3c2OC)CC1 [Compound 20]
Given back: 1.9

----------
Assign MIC M. tuberculosis H37Rv GyrB D500N to each entry below.
# System: M. tuberculosis H37Rv GyrB D500N
# Format: cell-based
Quick reminder: number only, in µM, skip the unit.

Asked: Given the molecule CCCCCCCCCCCCN1CCN(c2c(F)cc3c(=O)c(C(=O)O)cn(C4CC4)c3c2OC)CC1 , what is its reported MIC M. tuberculosis H37Rv GyrB D500N?
Given back: 0.23

Asked: For CCCCCCCCCN1CCN(c2c(F)cc3c(=O)c(C(=O)O)cn(C4CC4)c3c2OC)CC1 then?
Given back: 0.5

Asked: CCCCCCCCCCN1CCN(c2c(F)cc3c(=O)c(C(=O)O)cn(C4CC4)c3c2OC)CC1 ?
Given back: 0.5

Asked: One more molecule: CCCCCCCCCCCN1CCN(c2c(F)cc3c(=O)c(C(=O)O)cn(C4CC4)c3c2OC)CC1
Given back: 2

Asked: Next entry: CCCCCCCN1CCN(c2c(F)cc3c(=O)c(C(=O)O)cn(C4CC4)c3c2OC)CC1
Given back: 2.2

----------
# Tested on: multidrug-resistant M. tuberculosis clinical strain KC1503006247
# assay text: microbe, parasite or virus in culture
# Assay type: cell-based
# cond: Mycobacterium tuberculosis; MDR clinical strain; Table 3
Exercise: state measured MIC for each of the molecules provided.

Asked: For the molecule CCCCCCCCCN1CCN(c2c(F)cc3c(=O)c(C(=O)O)cn(C4CC4)c3c2OC)CC1 [Compound 17] , what MIC is on record?
Given back: < 0.12 µM

Asked: Ok, now CCCCCCCCCCN1CCN(c2c(F)cc3c(=O)c(C(=O)O)cn(C4CC4)c3c2OC)CC1 [Quin 19]
Given back: < 0.12 µM

Asked: Now this one: CCCCCCCCN1CCN(c2c(F)cc3c(=O)c(C(=O)O)cn(C4CC4)c3c2OC)CC1 [Quin 18]
Given back: < 0.12 µM

----------
# Tested on: multidrug-resistant M. tuberculosis clinical strain GV1503014223
# assay text: microbe, parasite or virus in culture
# Format: cell-based
# cond: Mycobacterium tuberculosis; MDR clinical strain; Table 3
Could you please report measured MIC for the items listed next?

Asked: Tell me reported MIC for CCCCCCCCCCN1CCN(c2c(F)cc3c(=O)c(C(=O)O)cn(C4CC4)c3c2OC)CC1 [Quin 19] , tested with multidrug-resistant M. tuberculosis clinical strain GV1503014223.
Given back: < 0.12 µM

Asked: // same read-out, input: CCCCCCCCN1CCN(c2c(F)cc3c(=O)c(C(=O)O)cn(C4CC4)c3c2OC)CC1 [Quin 18]
Given back: < 0.12 µM

Asked: Next up: CCCCCCCCCN1CCN(c2c(F)cc3c(=O)c(C(=O)O)cn(C4CC4)c3c2OC)CC1 [Compound 17]
Given back: < 0.12 µM
